test_details: Cytotoxic activity against human MT4 cells assessed as viability of mock-infected cells after 5 days by MTT assay
Type: cell-based
Give measured log10 of CC50 at 120 h for each item. Keep answers brief.
Quick note: numbers are log10 of CC50 at 120 h, with µM as the unit.

Which value of log10 of CC50 at 120 h has been reported for "CCc1c(CN2CCCc3ccccc32)nc(SCC(=O)c2ccc(C#N)cc2)[nH]c1=O" in the records?
2.06

Now the molecule "Cc1c(CN2CCCc3ccccc32)nc(SCC(=O)c2ccc(C#N)cc2)[nH]c1=O"
1.65

Now the molecule "CCc1c(CN2CCCc3ccccc32)nc(SCc2ccc(F)cc2)[nH]c1=O"
2.12

Now the molecule "COc1ccc(CSc2nc(CN3CCCc4ccccc43)c(C)c(=O)[nH]2)cc1"
1.78

Now the molecule "Cc1c(CN2CCCc3ccccc32)nc(SCc2ccc(F)cc2)[nH]c1=O"
0.94

Now the molecule "N#Cc1ccc(CSc2nc(CN3CCCc4ccccc43)cc(=O)[nH]2)cc1"
1.94

Now the molecule "CCc1c(CN2CCCc3ccccc32)nc(SCC(=O)c2ccc(OC)cc2)[nH]c1=O"
1.79

Now the molecule "Cc1ccc(C(=O)CSc2nc(CN3CCCc4ccccc43)cc(=O)[nH]2)cc1"
2.19

Now the molecule "CCc1c(CN2CCCc3ccccc32)nc(SCc2ccc([N+](=O)[O-])cc2)[nH]c1=O"
2.29

Now the molecule "Cc1c(CN2CCCc3ccccc32)nc(SCC(=O)c2ccc(Cl)cc2)[nH]c1=O"
1.62

Now the molecule "O=C(CSc1nc(CN2CCCc3ccccc32)cc(=O)[nH]1)c1ccccc1"
2.18

Now the molecule "O=C(CSc1nc(CN2CCCc3ccccc32)cc(=O)[nH]1)c1ccc(Cl)cc1"
1.88

Now the molecule "CCc1c(CN2CCCc3ccccc32)nc(SCc2ccc(OC)cc2)[nH]c1=O"
2.17

Now the molecule "CCc1c(CN2CCCc3ccccc32)nc(SCC(=O)c2ccc(F)cc2)[nH]c1=O"
2.19

Now the molecule "CCc1c(CN2CCCc3ccccc32)nc(SCc2ccc(C#N)cc2)[nH]c1=O"
1.78

Now the molecule "Cc1c(CN2CCCc3ccccc32)nc(SCc2ccc(Cl)cc2)[nH]c1=O"
1.82

Now the molecule "O=C(CSc1nc(CN2CCCc3ccccc32)cc(=O)[nH]1)c1ccc(F)cc1"
2.13

Now the molecule "CCc1c(CN2CCCc3ccccc32)nc(SCC(=O)c2ccccc2)[nH]c1=O"
2.47

Now the molecule "Cc1c(CN2CCCc3ccccc32)nc(SCc2ccccc2)[nH]c1=O"
0.83

Now the molecule "COc1ccc(C(=O)CSc2nc(CN3CCCc4ccccc43)c(C)c(=O)[nH]2)cc1"
1.78

Now the molecule "CCc1c(CN2CCCc3ccccc32)nc(SCc2ccccc2)[nH]c1=O"
0.68

Now the molecule "Cc1c(CN2CCCc3ccccc32)nc(SCc2ccc(C#N)cc2)[nH]c1=O"
1.11
